assay summary: chemical genetic growth profiling, strain panel (AID 1159580);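 further: tested at 20 µM; growth read once vehicle control cultures reached saturation at 30 °C; 1 = growth at the plate median or of vehicle wells; lower values mean less growth of the strain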
condition summary: S. cerevisiae deletion strains, growth OD, locus YJR075W, strain HOC1, active compounds read low
Screen size: about 5,500 compounds; about 2,000 (36%) were called active. About 18% were inconclusive and are not listed. The list shows a part of the results.
property measured: normalized growth
Just the number.

Solved entries (count: 3):
>>> observed_value("CC(=O)OCC(=O)[C@@]1(O)CCC2C3C[C@H](C)C4=CC(=O)C=CC4(C)C3[C@@H](O)CC21C (stereo not given in full)")
1.01
>>> observed_value("COc1ccccc1N1CCN(CCN(C(=O)c2ccc(F)cc2)c2ccccn2)CC1")
1.01
>>> observed_value("CCC(=O)OCC(=O)[C@@]1(OC(=O)CC)[C@@H](C)CC2C3CCC4=CC(=O)C=C[C@]4(C)C3(F)[C@@H](O)C[C@@]21C (stereo not given in full)")
0.945

Query :: Give reported normalized growth value for `O=C1CC2(CCCC2)CC(=O)N1CCCCN1CCN(c2ncccn2)CC1`
Result :: 0.978

Query :: Specify reported normalized growth for the compound shown: `O=C(O)c1oc(C(=O)O)c(OCc2ccccc2)c1OCc1ccccc1`
Result :: 0.988

Query :: Supply reported normalized growth belonging to this compound: C[C@H]1CC2C3CCC4=CC(=O)C=C[C@]4(C)[C@@]3(Cl)[C@@H](O)C[C@]2(C)[C@@]1(O)C(=O)CO (stereo not given in full)
Result :: 1.01

Query :: Indicate the recorded normalized growth value for this compound: `COc1ccc(-c2cc(=O)c3c(O)cc(O)cc3o2)cc1`
Result :: 0.976

Query :: Please indicate normalized growth recorded for `CCNC(=O)N1CCN(CCCC(c2ccc(F)cc2)c2ccc(F)cc2)CC1`
Result :: 0.988

Query :: Note normalized growth for the compound shown: OCC(O)Cn1c2ccccc2c2ccccc21 (stereo not given)
Result :: 1.01

Query :: Return value of normalized growth for input CC(=O)N1CCCC1C(=O)O (stereo not given) , no commentary.
Result :: 1

Sourced from PubChem BioAssay AID1159580
